Give measured IC50 for each item. Keep answers brief.
# Test system: HT-29 colon adenocarcinoma cells
# protocol.notes: cells
# Assay type: cell-based, human
# run.parameters: 24 h
*1 amine or outer side, *2 acyl side, *3 side chain or, on linkers, in order; H or OH if unused. Where a SMILES comes first, the peptide text is derived from it. [ ]: non-standard residue; d: D form. The star is where a group is joined. Quinoxaline2carbonyl = O=C(c1cnc2ccccc2n1)*; Ethylenediamine = C(CN[*:2])N[*:1]; NMeV = CN[C@H](C(=O)O)C(C)C; NMeAbu = CC[C@H](NC)C(=O)O; Abu = CC[C@H](N)C(=O)O

compound: CC[C@H](NC(=O)[C@H](CO)NC(=O)c1cnc2ccccc2n1)C(=O)N[C@H](C(=O)N[C@H](C(=O)N1CCC[C@@H]1C(=O)NCC(=O)N[C@H](C(=O)N[C@H](C(=O)N[C@@H](CC)C(=O)NCCNC(=O)c1cnc2ccccc2n1)C(C)C)[C@@H](C)O)[C@@H](C)O)C(C)C [RZ6] (Quinoxaline2carbonyl-S[Abu]VT[dP]GTV[Abu]-{Ethylenediamine-Quinoxaline2carbonyl})
experimental.system: HT-29 colon adenocarcinoma cells
result: 83.1 µM

Now look at this entry.
For the compound shown here, CC[C@H](C)[C@H](NC(=O)CNC(=O)[C@H]1CCCN1C(=O)[C@@H](NC(=O)[C@H](C(C)C)N(C)C(=O)[C@H](CC)N(C)C(=O)[C@H](CO)NC(=O)c1cnc2ccccc2n1)[C@@H](C)CC)C(=O)N(C)[C@H](C(=O)N(C)[C@@H](CC)C(=O)NCCNC(=O)c1cnc2ccccc2n1)C(C)C [RZ9] (Quinoxaline2carbonyl-S[NMeAbu][NMeV]I[dP]GI[NMeV][NMeAbu]-{Ethylenediamine-Quinoxaline2carbonyl}) , give the reported IC50.
84.4 µM
